B1: H2-Kb / F4 (parent complex)
chain 1: QQQVRQSPQSLTVWEGETAILNCSYEDSTFNYFPWYQQFPGEGPALLISIRSVSDKKEDGRFTIFFNKREKKLSLHITDSQPGDSATYFCAAMSNYNVLYFGSGTKLTVEP
chain 2: ETAVFQTPNYHVTQVGNEVSFNCKQTLGHDTMYWYKQDSKKLLKIMFSYNNKQLIVNETVPRRFSPQSSDKAHLNLRIKSVEPEDSAVYLCASSARQNSPLYFAAGTRLTVT
chain 3: not shown
chain 4: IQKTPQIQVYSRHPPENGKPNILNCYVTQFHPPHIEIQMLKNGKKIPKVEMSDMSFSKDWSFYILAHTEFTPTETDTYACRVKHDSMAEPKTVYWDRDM
chain 5: SIINFEKL

- Variants of: B1
- procedure_summary: % of reporter cells activated (NFAT-GFP), raw; note: test concentration or dose not given here
readout_label: ratio to parent

chain 5 L8T
0.614

P: chain 5 F5W
Q: chain 5 I2A
R: chain 5 F5Q
S: chain 5 S1P
// ranking: key=ratio to parent, reverse=True Rank the items, then write their labels in that order.
Q, R, P, S
(Q: 1.38, R: 0.517, P: 0.083, S: 0.0438)

I: chain 5 K7R
II: chain 5 S1K
III: chain 5 S1W
IV: chain 5 E6K
V: chain 5 L8E
List the 5 entries from lowest ratio to parent to highest ratio to parent value. Output spec: labels arranged per the requested ranking.
III, II, IV, V, I

I: chain 5 N4C
II: chain 5 I3V
Parameter metric = ratio to parent. Return the lower-valued option from I and II . Give the chosen item's label as your response.
I

FYI, the data here is from paper PMC11480844.
